Ref: patent US20210246166A1

Biological target: recombinant human MASP2 active protease (amino acids 297-686, C-terminal His Tag) (human, UniProt O00187 297-686)
Sequence (O00187 other isoform, or with tags, fused parts or gaps limits assumed): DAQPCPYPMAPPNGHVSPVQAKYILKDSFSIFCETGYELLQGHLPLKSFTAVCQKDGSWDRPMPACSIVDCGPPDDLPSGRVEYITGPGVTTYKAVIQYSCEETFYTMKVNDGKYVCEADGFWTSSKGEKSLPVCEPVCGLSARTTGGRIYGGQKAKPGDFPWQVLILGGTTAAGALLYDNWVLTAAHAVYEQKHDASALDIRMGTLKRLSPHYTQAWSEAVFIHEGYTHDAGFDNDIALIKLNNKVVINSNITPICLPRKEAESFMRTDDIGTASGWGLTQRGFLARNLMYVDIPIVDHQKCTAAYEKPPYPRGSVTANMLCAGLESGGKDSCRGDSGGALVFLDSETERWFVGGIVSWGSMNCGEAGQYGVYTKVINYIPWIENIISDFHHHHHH
Test: cell-based or functional assay
Bridge positions count the residues as written; N and C are the ends. Square brackets hold non-standard residues; d marks the D form. Ends that are not written are not given here. tBuAla = CC(C)(C)C[C@H](N)C(=O)O; PEG5 = NCCOCCOCCOCCOCCOCCC(=O)O; Pen = CC(C)(S)[C@H](N)C(=O)O; PEG3 = NCCOCCOCCOCCC(=O)O; Abu = CC[C@H](N)C(=O)O; PEG2 = NCCOCCOCCC(=O)O; Sar = CNCC(=O)O
Assay Metric: human MASP2 IC50 (nM)
Reply numerically in nM, unit not repeated.

# lookup: human MASP2 IC50 of [Sar]ICSRS[tBuAla]PPI[Pen]IP[PEG5]-NH2 (disulfide 3-11; N-terminus assumed; SMILES CC[C@H](C)[C@H](NC(=O)CNC)C(=O)N[C@H]1CSSC(C)(C)[C@@H](C(=O)N[C@H](C(=O)N2CCC[C@H]2C(=O)NCCOCCOCCOCCOCCOCCC(N)=O)[C@@H](C)CC)NC(=O)[C@H]([C@@H](C)CC)NC(=O)[C@@H]2CCCN2C(=O)[C@@H]2CCCN2C(=O)[C@H](CC(C)(C)C)NC(=O)[C@H](CO)NC(=O)[C@H](CCCNC(=N)N)NC(=O)[C@H](CO)NC1=O) [((N-Me)G)-IC+SRS-((tBu)A)-PPI-(Pen)+IP-(PEG4(19 atoms))-NH2]
60

# lookup: human MASP2 IC50 of [Sar]ICSRS[tBuAla]PPI[Pen]IP[PEG3]-NH2 (disulfide 3-11; N-terminus assumed; SMILES CC[C@H](C)[C@H](NC(=O)CNC)C(=O)N[C@H]1CSSC(C)(C)[C@@H](C(=O)N[C@H](C(=O)N2CCC[C@H]2C(=O)NCCOCCOCCOCCC(N)=O)[C@@H](C)CC)NC(=O)[C@H]([C@@H](C)CC)NC(=O)[C@@H]2CCCN2C(=O)[C@@H]2CCCN2C(=O)[C@H](CC(C)(C)C)NC(=O)[C@H](CO)NC(=O)[C@H](CCCNC(=N)N)NC(=O)[C@H](CO)NC1=O) [((N-Me)G)-IC+SRS-((tBu)A)-PPI-(Pen)+IP-(PEG2(13 atoms))-NH2]
42

# lookup: human MASP2 IC50 of [Abu]ICSRS[tBuAla]PPICIPD-NH2 (disulfide 3-11; N-terminus assumed; SMILES CC[C@H](N)C(=O)N[C@H](C(=O)N[C@H]1CSSC[C@@H](C(=O)N[C@H](C(=O)N2CCC[C@H]2C(=O)N[C@@H](CC(=O)O)C(N)=O)[C@@H](C)CC)NC(=O)[C@H]([C@@H](C)CC)NC(=O)[C@@H]2CCCN2C(=O)[C@@H]2CCCN2C(=O)[C@H](CC(C)(C)C)NC(=O)[C@H](CO)NC(=O)[C@H](CCCNC(=N)N)NC(=O)[C@H](CO)NC1=O)[C@@H](C)CC) [(Abu)-IC+SRS-((tBu)A)-PPIC+IPD-NH2]
120

# lookup: human MASP2 IC50 of LICSRS[tBuAla]PPI[Pen]IPD-NH2 (disulfide 3-11; N-terminus assumed; SMILES CC[C@H](C)[C@H](NC(=O)[C@@H](N)CC(C)C)C(=O)N[C@H]1CSSC(C)(C)[C@@H](C(=O)N[C@H](C(=O)N2CCC[C@H]2C(=O)N[C@@H](CC(=O)O)C(N)=O)[C@@H](C)CC)NC(=O)[C@H]([C@@H](C)CC)NC(=O)[C@@H]2CCCN2C(=O)[C@@H]2CCCN2C(=O)[C@H](CC(C)(C)C)NC(=O)[C@H](CO)NC(=O)[C@H](CCCNC(=N)N)NC(=O)[C@H](CO)NC1=O) [LIC+SRS-((tBu)A)-PPI-(Pen)+IPD-NH2]
70

# lookup: human MASP2 IC50 of [Sar]ICSRS[tBuAla]PPI[Pen]IP[PEG2]-NH2 (disulfide 3-11; also: HCl salt) [((N-Me)G)-IC+SRS-((tBu)A)-PPI-(Pen)+IP-(PEG1(10 atoms))-NH2 (HCl salt)]
31
